target: T1, human Aβ (1-40) peptide (human); assay: SPR, kinetic fit, immobilized fibers;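 also: surface plasmon resonance on a Biacore chip bearing in vitro formed Aβ1-40 or Aβ1-42 fibers, KD taken as koff/kon by fitting time-resolved sensor responses, based on total Fab concentration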
T1 construct: also called Aβ1-40 fibers
value-kind: pKd
Hey, just a heads up that pKd is the negative log base 10 of the concentration in molar.

Data request: For the binder MS-Roche #3.4H3×3.4L9 Fab (Fab, V domains shown, cross-cloned Fab) VH: QLVESGGGLVQPGGSLRLSCAASGFTFSSYAMSWVRQAPGKGLEWVSVISQTGRKIYYADSVKGRFTISRDNSKNTLYLQMNSLRAEDTAVYYCARLTHYARYYRYFDVWGQGTLVTVSS VL: DIVLTQSPATLSLSPGERATLSCRASRRIHVYYLAWYQQKPGQAPRLLIYGASSRATGVPARFSGSGSGTDFTLTISSLEPEDFATYYCQQTYDYPPTFGQGTKVEIKR , give its reported pKd.
Data returned: 8.98

Data request: Please report the measured pKd for MS-Roche #3.4H1×3.4L9 Fab (Fab, V domains shown, cross-cloned Fab) VH: QLVESGGGLVQPGGSLRLSCAASGFTFSSYAMSWVRQAPGKGLEWVSAISETSIRKYYADSVKGRFTISRDNSKNTLYLQMNSLRAEDTAVYYCARLTHYARYYRYFDVWGQGTLVTVSS VL: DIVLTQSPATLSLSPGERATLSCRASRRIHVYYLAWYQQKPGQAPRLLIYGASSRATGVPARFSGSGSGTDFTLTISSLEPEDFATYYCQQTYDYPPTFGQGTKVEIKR
Data returned: 9.60

Data request: In one line, give reported pKd of the entry MS-Roche #7.9H2×7.12L2(L1+2) Fab (Fab, V domains shown, VL assembled from the legend's definition and cloning strategy 3) VH: QLVESGGGLVQPGGSLRLSCAASGFTFSSYAMSWVRQAPGKGLEWVSAINADGNRKYYADSVKGRFTISRDNSKNTLYLQMNSLRAEDTAVYYCARGKGNTHKPYGYVRYFDVWGQGTLVTVSS VL: DIVLTQSPATLSLSPGERATLSCRASQRFFYKYLAWYQQKPGQAPRLLISGSSNRATGVPARFSGSGSGTDFTLTISSLEPEDFATYYCLQIYNMPITFGQGTKVEIKR .
Data returned: 9.40
